# System: K4 kissing-loop RNA reporter
# Run description: apparent KD of K4 kissing-loop reporter; higher = weaker reporter binding
# Experimental conditions: Eterna round: R107; input ligand: theophylline 20 uM
Label rule, in plain words: apparent KD of K4 kissing-loop reporter of 500 nM and up is rule met, under 500 nM is rule not met.

Examples from the recorded data:
GCUAUGGUAGGAAGGAGCGCUACUUUGUUUUUACGAGUGAUGUUCGGUAGCAGAGUGUUAAAGCAGGUAGGUCGCCUACUAUAGC [Arginine B K4 19]
rule not met
AAACAUAAGUCUGAUACCAGCCUGGGAGAAGUGAUGUUUCUCGGUGCAUAACGCCUAUAAGGCCCUUGGCAGCAGCAUGCGCUUC [theeternabot_sameState_KL_Theo_B_10]
rule not met
GAGCCAACCGUCGAUACCAGCCGCACGUCAUUCACUCAAUGCUGAGGAGCCAGUGAUGUUGGCCCUUGGCAGCGAAGCAACGAUC [theeternabot_exclusion_KL_Theo_B_43]
rule not met
UUAGGAGUGGAAGGAUAUCCUGGUGUGGGUGAUGUUAGUGAUGUUGGAGGUGCAGUGAUGUUGCGCGGAGAAGGUCCGGUGUUGA [BDazzled - #5 - Exc. FMN B]
rule not met

Then this sequence:
Task: Hi, just wondering whether UUUAUGAUGUCGGCCGCCACUGGAUUAAUAUGUGUGUAAUCUAGUUCUGAGUGAUGUUUAGAGUCCAGGACCGGGACAUUAGUUA [#12 K4 Tryptophan B Exclusion] shows apparent KD of K4 kissing-loop reporter of 500 nM or higher.
Result: rule met

###

// apparent KD of MS2 coat protein lookup, one value per entry
# Tested on: MS2 coat protein
# Run description: apparent KD of MS2 coat protein; designed switch direction (-1 OFF switch, 1 ON switch): 1; higher = weaker reporter binding
# Experimental conditions: input ligand: microRNA oligo, concentration not stated
// return numeric value only (unit: nM, not printed)

GGUAAGAAUUAAGGAUAUUGAAUACAUAUGUUUAACAUGAGGAUCACCCAUGUGGGUUGCGGUGUCGAGAAGGUAAAUUACUAG [Mat - same State NG 2 - JL mod - D99] (Eterna round: R96, puzzle: Same State NG 2)
179

Task: Consider the sequence shown here: AAAAAAAAGUCAGGAUAUGAAUGGAAAGUACAUGAGGAUCACCCAUGUUAUGGAAAAAAAAAACGUUAGAAGGGAUAAAAAAAA [AK SSNG2-V2-1] (Eterna round: R96, puzzle: Same State NG 2) What is its recorded apparent KD of MS2 coat protein?
Result: 90.2

Task: Follow-up entry: GUCGGCCUGUCGUGCUGAGGUGAUAGUUAACAUGAGGAUCACCCAUGUUGCUGUCGGGUCGUUGGGAGUUUUCUUCG [Modxample 117 - Jieux - Sensor for bsa-mir-208a] (Eterna round: R96, puzzle: Sensor for hsa-mir-208a)
Result: 50.8

Task: Follow-up entry: UGGAUCUAGGCUUGCCUGGGUCCAUGCUGACAUGAGGAUCACCCAUGUGCAUCCUACAAGCUUUUUGCUUGUCAGUU (Eterna round: R96, puzzle: Sensor for hsa-mir-208a)
Result: 330

Task: Follow-up entry: UGGCUCAGACGAGGAUAUAUGUGGUCACAUGAGGAUCACCCAUGUCUCGAGCUUCGGCUCGAGGCAUAGAAGGCGUCUGAGCCA [SSNG2/5-A2] (Eterna round: R96, puzzle: Same State NG 2)
Result: 50.8

Task: Follow-up entry: CCGGAUAAUGGAGGAUAUGGAGCCUUAUUGGCUCCAGAAGGCUAACAUGAGGAUCACCCAUGUAGUCCGGCGGUCAAUAGACCG [Eli NG1ss - 67] (Eterna round: R96, puzzle: Same State NG 1)
Result: 11.5

Task: Follow-up entry: AUUAUACAUGAGGAUCACCCAUGUCAACAAAGUCGAGGAUAUGGGCAAAUAAAAUAAGAACCAGAAGGCGAAUAAU [salish99_ss1_r3_069] (Eterna round: R96, puzzle: Same State 1)
Result: 189

Task: Follow-up entry: AUUAUUAGUGCAGGAUAUGAUUAACAUGAGGAUCACCCAUGUGGUGUUGUGAGUAAGGAGAGUGAUCAGAAGGGCAUUUUUUUU [JMF's solution 21] (Eterna round: R96, puzzle: Same State NG 2)
Result: 333

Task: Follow-up entry: AUAAAAGAAAGAAACACAUGAGGAUCACCCAUGUAACGACUACAGGAUAUGCUGCACAGUCCAAAGCAGAAGGGUGGUCAAAAC [Qulaesed] (Eterna round: R96, puzzle: Same State NG 3)
Result: 111

###

# Test system: K4 kissing-loop RNA reporter;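 further: bound reporter read as fluorescence of individual clusters on recovered sequencing chips by microscopy, with normalized cluster intensities fitted with a binding model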
# Run description: apparent KD of K4 kissing-loop reporter; higher = weaker reporter binding
# Experimental conditions: Eterna round: R107; input ligand: none
Quantity kind: apparent KD of K4 kissing-loop reporter

UGACUGGAUGGAAGGAGCGCUAAACUCCUAGUGAUGUUAGGGAUAUGAGGCAAAGCCUUGAGGCAGGUAGGUCGCCAUCUAGUCU [FiskerMod 25 - Jieux - Same State - Arginine B]
131 nM
CAUGGAGUGAUGCUCCAUGGUCGGGCUUGGCAGGAUAUGGGAUCUUCCAGAAGGGCCGAUCCCGGCGAGUGAUGUUCGCUGGUCU [Exclusion FMN A GF 28]
316 nM
AGACUACUGAUAGGAUAUAACAUCCUAGUCGUAUACCGAAAGGUAUACGAUUCCCUUCUAGUGAUGUUAGAAGGGUCGGUAGUCA [Omei KL FMN B Exc B v12]
71.3 nM
AGGUCCGAGCCCGGAAGGGCUCGGACCUGUUAGGAUAUGACGUUAUUCAGAAGGGAUGGGUGGAGUGAUGUUCCACCCGCAAGGG [#2 Same State - FMN A Attempt #9 (HarryS)]
111 nM

Okay, next one:
Task: Consider the sequence shown here: AUAUCUGUUCGAAAGAACGGAUCUUCGGAAGGAGCGCGUGAAAACGCAGGUAGGUCGCCGAAGUUAUUAGGUAGUGAUGUUACCU [Arginine A K4 7] What is its recorded apparent KD of K4 kissing-loop reporter?
Result: 113 nM

###

// apparent KD of MS2 coat protein lookup, one value per entry
# Tested on: MS2 coat protein
# Run description: apparent KD of MS2 coat protein; designed switch direction (-1 OFF switch, 1 ON switch): -1; higher = weaker reporter binding
# Experimental conditions: input ligand: none

Record excerpt, results attached:
AGUAUGCGGCAGGAUAUCCAUCCGCGGUGAGGUGGAGAAGGGCUGACAUGAGGAUCACCCAUGUGCGUCCUGUA [salish99_ex6_r4_027] (Eterna round: R97, puzzle: Exclusion 6)
21 nM
ACAUGAUCAGGAUAUACAUGAGGAUCACCCAUGUAAAUCAAAAAAAAACUUUCUUUAUGUAGAAGGGAUCUUGU [EX3 270: Random 6] (Eterna round: R96, puzzle: Exclusion 3)
15.3 nM

Task: Consider the sequence shown here: GCUGGUCGAGGAUAUACAUGAGGAUCACCCAUGUGAUCAGCAGUCCUCGGACUGCAAUGUAGAAGGUGACCAGC [E3/1-B1] (Eterna round: R97, puzzle: Exclusion 3) What is its recorded apparent KD of MS2 coat protein?
Result: 2270 nM

###

# Tested on: MS2 coat protein
# Run description: apparent KD of MS2 coat protein; designed switch direction (-1 OFF switch, 1 ON switch): -1; higher = weaker reporter binding
# Experimental conditions: input ligand: FMN 200 uM
Quantity kind: apparent KD of MS2 coat protein
Put down the number, then write its unit next to it.

Record excerpt, results attached:
AAAGGGUCAGGAUAUCCUGUGAAGAAGAAGUUGUUGUCGCGGGAGAAGGGACAUGAGGAUCACCCAUGUAGAGC [A Simple Submission] (Eterna round: R97, puzzle: Exclusion 4)
52.9 nM
AGAUGCUCAAGUCGACAUGAGGAUCACCCAUGUACAGUUAAUGAGGAUAUCCGAGAUAAAUAAUAGGAGAAGGCGUGAACAUGA [Ex NG3 #8] (Eterna round: R96, puzzle: Exclusion NG 3)
72.4 nM
UAGACUGAAGGAUAUACGUGGUAUCCGGCUAAUCAAGGUUCACAUGAGGAUCACCCAUGUAGAAGGUCAGCUCG [Eternabot (L2) Solution 18] (Eterna round: R97, puzzle: Exclusion 2)
359 nM
CACCGUUAGUGAGGAUAUCGUACAUGAGGAUCACCCAUGUAAUAAAUGAGAAUUUCGGAUGUAUGCGAGAAGGCACAAAUCGGC [Ostracism 40 - Jieux - Exclusion NG 2] (Eterna round: R96, puzzle: Exclusion NG 2)
37.1 nM

Okay, next one:
Task: Consider the sequence shown here: GAAUAGCGAGGAUAUACAUGAGGAUCACCCAUGUGAUCCUUAGGCUGUUCAAGCCUAUGUAGAAGGCGCAAAUU [jl-ex3.4.56 ViennaUCT mod] (Eterna round: R97, puzzle: Exclusion 3) What is its recorded apparent KD of MS2 coat protein?
Result: 86.2 nM
